Target: UniProtKB O43614
Assay: Calcium Accumulation in Cells (FLIPR), antagonism of orexin A
Conditions: antagonism of orexin A, Cheng-Prusoff corrected; read-out: FLIPR hOx2R Ki
readoutName: Ki (nM)
Number in nM, nothing else.

Consider the reported Ki for these compounds:
compound: COc1ccc([C@H](C)NC(=O)COc2cc(C(F)(F)F)c3c(-c4ccccc4)nn(C)c3n2)cc1
Ki [nM]: 2

compound: Cc1cc(OCC(=O)N[C@@H](C)c2ccccc2)nc2c1c(C1CC1)nn2C
Ki [nM]: 938

compound: Cn1nc(-c2ccccc2)c2c(C(F)(F)F)cc(OCC(=O)NC3CCCc4ccccc43)nc21 (stereo not shown)
Ki [nM]: 165

Continue with the compound presented below.
Entry COc1ccc(C(C)NC(=O)COc2cc(C)c3c(C4CC4)nn(C)c3n2)cn1 (stereo not shown) : reported Ki = ? 747

====

Biological target: human orexin 2 receptors (Homo sapiens (Human))
Assay: Calcium Accumulation in Cells (FLIPR), antagonism of orexin A
Assay type: cell-based
Details: measured at a concentration of 10 μM of compound; read-out: FLIPR hOx2R % inhibition value
readoutName: inhibition at 10 µM (%)
Numbers only here, please. The scale is %.

molecule: Cc1cc(OCC(=O)NC2CCCc3ncccc32)nc2c1c(C1CC1)nn2C (stereo not shown)
valueReported: 20
--
molecule: Cn1nc(-c2ccccc2)c2c(C(F)(F)F)cc(OCC(=O)NC3CCC3)nc21
valueReported: 42
--
molecule: COc1ccc([C@H](C)NC(=O)C(C)Oc2cc(C)c3c(C4CC4)nn(C)c3n2)cc1 (single isomer, unassigned)
valueReported: 29
--
molecule: COc1ccc2c(c1)CC[C@@H]2NC(=O)C(C)Oc1cc(C)c2c(C3CC3)nn(C)c2n1 (single isomer, unassigned)
valueReported: 48
--
molecule: Cc1cc(OCC(=O)NCc2cccc3cnn(C)c23)nc2c1c(C1CC1)nn2C
valueReported: 40

Moving on to another molecule below.
So what does the record say about inhibition at 10 µM for Cc1cc(OCC(=O)NC(C)C2CC2)nc2c1c(C1CC1)nn2C (stereo not shown) ? 38

====

List of Ki values.
Molecular target: UniProt:O43614
Assay: Calcium Accumulation in Cells (FLIPR), antagonism of orexin A
Settings: antagonism of orexin A, Cheng-Prusoff corrected; read-out: FLIPR hOx2R Ki
Report the figure in nM without appending any unit label.

So what's the measured Ki for this one? Cc1cc2c(cn1)[C@@H](NC(=O)COc1cc(C)c3c(C4CC4)nn(C)c3n1)CC2 [Example 6.64] 93

GET /values?readout=Ki&item= COc1cccc(CNC(=O)COc2cc(C(F)(F)F)c3c(-c4ccccc4)nn(C)c3n2)c1 [Example 1.33] 427

Recorded Ki for COc1ccc(C(C)(C)NC(=O)COc2cc(C)c3c(C4CC4)nn(C)c3n2)cc1 [Example 6.62] , please? 160

====

Target: human orexin 2 receptors (Homo sapiens (Human))
Assay: Radioligand Binding Assay II ([3H]-SB649868 competition, cell membranes)
Details: read-out: binding II hOx2R Kd
readoutName: Kd (nM)
I only need the number, in nM, no unit after it.

molecule: Cc1ccc2c(n1)CC[C@@H]2NC(=O)COc1cc(C(F)F)c2c(-c3cc(C)oc3C)nn(C)c2n1
readoutName: Kd
valueReported: 271

molecule: COc1ccc2c(c1)CC[C@@H]2NC(=O)C(C)Oc1cc(C)c2c(C3CC3)nn(C)c2n1 (single isomer, unassigned)
readoutName: Kd
valueReported: 95

molecule: Cc1ccc([C@H](C)NC(=O)COc2cc(C)c3c(-c4cncs4)nn(C)c3n2)cc1
readoutName: Kd
valueReported: 26

molecule: Cc1ccc([C@H](C)NC(=O)COc2cc(C)c3c(C4CC4)nn(C)c3n2)cc1
readoutName: Kd
valueReported: 17

molecule: CCOc1ccc2c(c1)CC[C@@H]2NC(=O)COc1cc(C)c2c(C3CC3)nn(C)c2n1
readoutName: Kd
valueReported: 317

molecule: Cc1ccc([C@H](C)NC(=O)COc2cc(C)c3c(-c4cscn4)nn(C)c3n2)cc1
readoutName: Kd
valueReported: 6

For the next question, use this molecule.
Would you mind telling me what Kd value was observed for Cc1ccc2c(n1)CCC2NC(=O)COc1cc(C)c2c(C3CC3)nn(C)c2n1 (stereo not shown) ? 159

====

Molecular target: human orexin 1 receptors (Homo sapiens (Human))
Sequence (O43613 whole entry): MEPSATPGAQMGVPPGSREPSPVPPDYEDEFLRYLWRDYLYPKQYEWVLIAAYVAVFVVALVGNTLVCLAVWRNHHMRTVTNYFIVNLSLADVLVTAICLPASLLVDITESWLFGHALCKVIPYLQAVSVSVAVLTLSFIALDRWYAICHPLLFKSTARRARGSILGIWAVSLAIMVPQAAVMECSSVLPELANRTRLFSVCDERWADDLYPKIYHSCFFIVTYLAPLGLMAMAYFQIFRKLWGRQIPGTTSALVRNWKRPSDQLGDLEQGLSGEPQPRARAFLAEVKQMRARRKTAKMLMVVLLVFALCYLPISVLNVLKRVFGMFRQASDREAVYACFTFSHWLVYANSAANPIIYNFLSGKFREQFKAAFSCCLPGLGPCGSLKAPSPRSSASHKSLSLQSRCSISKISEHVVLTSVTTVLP
Test: Calcium Accumulation in Cells (FLIPR), antagonism of orexin A
Assay type: cell-based
Conditions: measured at a concentration of 10 μM of compound; read-out: FLIPR hOx1R % inhibition value
readoutName: inhibition at 10 µM (%)
Express it in %; write the number only.

Example compounds with recorded inhibition at 10 µM:
compound: COc1ccc(C(C)NC(=O)COc2cc(C)c3c(C(C)C)nn(C)c3n2)cn1 (centres unmarked)
valueReported: 39
--
compound: COc1ccc([C@H](C)NC(=O)COc2nc3c(c(C4CC4)nn3C)c(C)c2C)cc1
valueReported: 23
--
compound: Cc1cc(OCC(=O)NC2CCCC2)nc2c1c(C1CC1)nn2C
valueReported: 16
--
compound: C[C@H](NC(=O)COc1cc(C(F)(F)F)c2c(-c3ccccn3)nn(C)c2n1)c1ccccc1
valueReported: 38

Kindly state the measured inhibition at 10 µM obtained for COc1ccc2c(c1)CC[C@@H]2NC(=O)C(C)Oc1cc(C)c2c(C3CC3)nn(C)c2n1 (single isomer, unassigned) with human orexin 1 receptors (Homo sapiens (Human)). 46

Query the reported inhibition at 10 µM for human orexin 1 receptors (Homo sapiens (Human)); item: Cc1cc(OCC(=O)NCc2cccc3[nH]ncc23)nc2c1c(C1CC1)nn2C 26

human orexin 1 receptors (Homo sapiens (Human)) / inhibition at 10 µM / Cc1cc(OCC(=O)NC(C)C2CC2)nc2c1c(C1CC1)nn2C (centres unmarked) : value? 17

Please state recorded inhibition at 10 µM (tested on human orexin 1 receptors (Homo sapiens (Human))) of C[C@@H](NC(=O)COc1cc(C(F)(F)F)c2c(-c3ccccc3)nn(C)c2n1)c1ccccc1 33

====

Biological target: human orexin 2 receptors (Homo sapiens (Human), UniProt O43614)
Sequence (O43614 whole entry): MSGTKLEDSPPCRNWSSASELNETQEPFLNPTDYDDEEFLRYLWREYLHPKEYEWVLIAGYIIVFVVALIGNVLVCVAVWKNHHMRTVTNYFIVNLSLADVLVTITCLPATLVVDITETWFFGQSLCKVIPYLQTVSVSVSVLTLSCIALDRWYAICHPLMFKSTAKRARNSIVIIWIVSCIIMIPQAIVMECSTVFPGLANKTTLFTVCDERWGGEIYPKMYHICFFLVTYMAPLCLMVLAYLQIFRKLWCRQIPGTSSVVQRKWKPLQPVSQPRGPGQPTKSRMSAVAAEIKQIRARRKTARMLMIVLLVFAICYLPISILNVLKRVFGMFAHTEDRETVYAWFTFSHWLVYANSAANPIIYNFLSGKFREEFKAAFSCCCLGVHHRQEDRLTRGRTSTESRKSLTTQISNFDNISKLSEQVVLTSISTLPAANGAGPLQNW
Test: Calcium Accumulation in Cells (FLIPR), antagonism of orexin A
Conditions: antagonism of orexin A, Cheng-Prusoff corrected; read-out: FLIPR hOx2R Ki
readoutName: Ki
Please don't drop the unit; write it after the number.

Query: Ki; subject: COc1cccc(-c2nn(C)c3nc(OCC(=O)N[C@@H](C)c4ccccc4)cc(C(F)(F)F)c23)c1 187 nM

May I ask what Ki has been recorded for Cc1cc(OCC(=O)N[C@H]2CCc3ccccc32)nc2c1c(C1CC1)nn2C ? 809 nM

Given the compound COc1ccc(C(C)NC(=O)COc2cc(C(F)F)c3c(C4CC4)nn(C)c3n2)cn1 (stereo not shown) , what is its reported Ki? 184 nM

Reported Ki for Cc1ccc([C@H](C)NC(=O)COc2nc3c(c(C4CC4)nn3C)c(C)c2C)cc1 : what is it? 567 nM

====

Target: human orexin 1 receptors (Homo sapiens (Human))
Assay: Radioligand Binding Assay II ([3H]-SB649868 competition, cell membranes)
Conditions: read-out: binding II hOx1R Kd
# pKd values compiled below
Convention used: pKd is expressed as -log10 of the molar concentration.

The following molecules have reported results that may help.
molecule: COc1ccccc1-c1nn(C)c2nc(OCC(=O)N[C@@H](C)c3ccc(C)cc3)ccc12
testedTarget: human orexin 1 receptors (Homo sapiens (Human))
pKd: 7.35

molecule: Cc1ccc2c(n1)CC[C@@H]2NC(=O)COc1cc(C(F)(F)F)c2c(-c3cc(C)oc3C)nn(C)c2n1
testedTarget: human orexin 1 receptors (Homo sapiens (Human))
pKd: 7.47

molecule: Cc1ccc([C@H](C)NC(=O)COc2cc(C(F)(F)F)c3c(C4CC4)nn(C)c3n2)cc1
testedTarget: human orexin 1 receptors (Homo sapiens (Human))
pKd: 7.36

molecule: Cc1ccc([C@H](C)NC(=O)COc2cc(C)c3c(-c4cc(C)oc4C)nn(C)c3n2)cc1
testedTarget: human orexin 1 receptors (Homo sapiens (Human))
pKd: 7.72

Fill in the blank: the reported pKd of Cc1ccc2c(n1)CC[C@@H]2NC(=O)COc1cc(C)c2c(C3CC3)nn(C)c2n1 is ____. 7.27

What value of pKd has been reported for the following molecule? Cc1ccc2c(n1)CC[C@@H]2NC(=O)COc1cc(C(F)F)c2c(-c3cc(C)oc3C)nn(C)c2n1 6.91

Consider the molecule Cc1nn(C)c(C)c1C(C)NC(=O)COc1cc(C(F)F)c2c(-c3ccccc3)nn(C)c2n1 (stereo not shown) and give its measured pKd. 7.66

====

Target: human orexin 2 receptors (Homo sapiens (Human))
Assay: Calcium Accumulation in Cells (FLIPR), antagonism of orexin A
Conditions: antagonism of orexin A, Cheng-Prusoff corrected; read-out: FLIPR hOx2R Ki
readoutName: Ki (nM)
Write the value in nM as a bare number.

Examples with answers:
smilesEntry: Cn1nc(-c2ccccc2)c2c(C(F)(F)F)cc(OCC(=O)NCc3ccc(Cl)cc3)nc21
Ki, nM: 251

smilesEntry: Cc1cc(OCC(=O)N[C@@H](C)c2ccccc2)nc2c1c(-c1ccccc1)nn2C
Ki, nM: 233

smilesEntry: C[C@H](NC(=O)COc1cc(C(F)(F)F)c2c(-c3ccc(F)cc3)nn(C)c2n1)c1ccccc1
Ki, nM: 136

// next entry
Value lookup for Ki; key = Cc1ccccc1-c1nn(C)c2nc(OCC(=O)N[C@@H](C)c3ccccc3)cc(C(F)(F)F)c12 183
